Would you mind telling me the reported Threshold of tumor cell numbers for HPV-16 detection of each entry?
- System: HPV-16
- protocol text: qPCR sensitivity against HPV-HNSCC tumor samples diluted among 10 ng normal human DNA
- experimental setup: Sample # 2

molecule	result
HR E5L2-4: primer/probe set for junction between E5 and L2, SEQ ID NO: 55-57 (same as SEQ ID NO: 4-6) (nucleic acid, chemistry not given here) DNA 1: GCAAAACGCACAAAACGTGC DNA 2: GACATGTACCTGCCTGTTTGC DNA 3: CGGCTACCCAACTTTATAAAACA	30.0 tumor cells

Pending molecule:
[in] # Threshold of tumor cell numbers for HPV-16 detection lookup, item BR E6-1: HPV-16 E6 region (172-373 bp) primer/probe set, SEQ ID NO: 58-60 (nucleic acid, chemistry not given here) DNA 1: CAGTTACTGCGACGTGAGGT DNA 2: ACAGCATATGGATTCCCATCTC DNA 3: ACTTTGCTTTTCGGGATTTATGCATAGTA
[out] 30.0 tumor cells
